Test: yeast growth modulation, basal conditions, primary screen, YJM789 clinical isolate, OD600, 24 h (AID 1089);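 note: growth of clinical yeast isolate S. cerevisiae YJM 789 seeded 1000 cells per well; test concentration not given here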
Details: S. cerevisiae YJM789 growth, higher = more signal, called active from +8 up or from −8 down
Rule: Fulfilled for z-score not less than 0.2, Not fulfilled for anything less.

* COc1ccc(CCN2C(=O)[C@@]3(Cc4ccccc42)c2ccccc2C(=O)N(Cc2ccccc2C(F)(F)F)[C@H]3c2ccc(CO)cc2)cc1 | Fulfilled
* CCOC(=O)C=Cc1cc([N+](=O)[O-])ccc1O | Not fulfilled
* CCCCCC1=C2CNC(CCC)(C(=O)OC)C=C2C(C)C1=O (stereo not drawn) | Not fulfilled
* COc1ccc(COC2OC[C@]3(C)[C@H]4C5=C(CN3C(=O)OC(C)(C)C)[C@H](C)C(CO)C(CO)C5CC[C@@H]24)cc1 (stereo partly drawn) | Fulfilled
* C=CCC(OC(C)=O)[C@@H]1[C@@H](N(Cc2ccc(-c3cccc(C(F)(F)F)c3)o2)C(=O)Cc2ccc(F)cc2)c2cc(OCCCO)ccc2N1C(=O)Cc1ccc(OC)cc1 (stereo partly drawn) | Not fulfilled
* COc1ccc([Si](C)(C)[C@@H]2[C@@H](CCO)O[C@]3(C(=O)N(Cc4ccc(N5C(=O)COc6ccccc65)cc4)c4ccccc43)[C@H]2C)cc1 | Fulfilled
* COCCOC(=O)N1C(=O)[C@@]2(c3cc(C#CC4=CCCCC4)ccc31)[C@H](C(=O)Nc1nc3ccccc3s1)[C@H]1C(=O)O[C@H](c3ccccc3)[C@H](c3ccccc3)N1[C@@H]2c1ccccc1OCCO | Fulfilled
* COc1ccc([Si](C)(C)[C@H]2[C@H](CCO)O[C@@]3(C(=O)N(Cc4ccc(N5C(=O)COc6ccccc65)cc4)c4ccccc43)[C@@H]2C)cc1 | Fulfilled
* CS(=O)(=O)CCOC(=O)C1=CC(CCCO)=CC(c2ccc(CN3CCCC3)cc2)N(Cc2cc3c(cc2Br)OCO3)C=C1C(=O)OCCS(C)(=O)=O (stereo not drawn) | Fulfilled
* COCCOC(=O)N1C(=O)[C@@]2(c3cc(C#CCCO)ccc31)[C@H](C(=O)N1CCc3cc(OC)c(OC)cc3C1)[C@H]1C(=O)O[C@H](c3ccccc3)[C@H](c3ccccc3)N1[C@@H]2c1ccc(O)cc1 | Fulfilled
* C=CCOC(=O)[C@H]1[C@@H]2C(=O)O[C@@H](c3ccccc3)[C@@H](c3ccccc3)N2[C@@H](c2ccc(OCCOC(=O)[C@H]3C[C@H]4C(=O)N[C@@H](CC(C)C)C(=O)N4[C@H]3c3ccc(O)cc3)cc2)[C@]12C(=O)Nc1ccc(I)cc12 | Fulfilled
* C=C(COC)/C(=C/C[C@@H](OC(C)=O)c1ccc(CO)o1)c1cnc2ccccc2c1 | Fulfilled
